test.target: His tagged CRBN+DDB−DLS7+CXU4 (Homo sapiens (Human), UniProt Q96SW2)
Sequence (Q96SW2 whole entry): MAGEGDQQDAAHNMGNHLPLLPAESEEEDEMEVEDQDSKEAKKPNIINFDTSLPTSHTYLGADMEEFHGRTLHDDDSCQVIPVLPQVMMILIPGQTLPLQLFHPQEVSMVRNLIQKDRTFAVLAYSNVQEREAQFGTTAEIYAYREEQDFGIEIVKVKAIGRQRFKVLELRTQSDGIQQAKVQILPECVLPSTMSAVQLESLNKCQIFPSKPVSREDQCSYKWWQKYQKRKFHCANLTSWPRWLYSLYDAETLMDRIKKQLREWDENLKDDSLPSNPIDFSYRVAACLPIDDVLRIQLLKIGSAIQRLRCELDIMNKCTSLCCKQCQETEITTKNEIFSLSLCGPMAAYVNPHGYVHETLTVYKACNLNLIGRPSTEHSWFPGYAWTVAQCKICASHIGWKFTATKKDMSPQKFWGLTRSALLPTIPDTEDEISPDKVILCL
Sequence (Q16531 whole entry partner): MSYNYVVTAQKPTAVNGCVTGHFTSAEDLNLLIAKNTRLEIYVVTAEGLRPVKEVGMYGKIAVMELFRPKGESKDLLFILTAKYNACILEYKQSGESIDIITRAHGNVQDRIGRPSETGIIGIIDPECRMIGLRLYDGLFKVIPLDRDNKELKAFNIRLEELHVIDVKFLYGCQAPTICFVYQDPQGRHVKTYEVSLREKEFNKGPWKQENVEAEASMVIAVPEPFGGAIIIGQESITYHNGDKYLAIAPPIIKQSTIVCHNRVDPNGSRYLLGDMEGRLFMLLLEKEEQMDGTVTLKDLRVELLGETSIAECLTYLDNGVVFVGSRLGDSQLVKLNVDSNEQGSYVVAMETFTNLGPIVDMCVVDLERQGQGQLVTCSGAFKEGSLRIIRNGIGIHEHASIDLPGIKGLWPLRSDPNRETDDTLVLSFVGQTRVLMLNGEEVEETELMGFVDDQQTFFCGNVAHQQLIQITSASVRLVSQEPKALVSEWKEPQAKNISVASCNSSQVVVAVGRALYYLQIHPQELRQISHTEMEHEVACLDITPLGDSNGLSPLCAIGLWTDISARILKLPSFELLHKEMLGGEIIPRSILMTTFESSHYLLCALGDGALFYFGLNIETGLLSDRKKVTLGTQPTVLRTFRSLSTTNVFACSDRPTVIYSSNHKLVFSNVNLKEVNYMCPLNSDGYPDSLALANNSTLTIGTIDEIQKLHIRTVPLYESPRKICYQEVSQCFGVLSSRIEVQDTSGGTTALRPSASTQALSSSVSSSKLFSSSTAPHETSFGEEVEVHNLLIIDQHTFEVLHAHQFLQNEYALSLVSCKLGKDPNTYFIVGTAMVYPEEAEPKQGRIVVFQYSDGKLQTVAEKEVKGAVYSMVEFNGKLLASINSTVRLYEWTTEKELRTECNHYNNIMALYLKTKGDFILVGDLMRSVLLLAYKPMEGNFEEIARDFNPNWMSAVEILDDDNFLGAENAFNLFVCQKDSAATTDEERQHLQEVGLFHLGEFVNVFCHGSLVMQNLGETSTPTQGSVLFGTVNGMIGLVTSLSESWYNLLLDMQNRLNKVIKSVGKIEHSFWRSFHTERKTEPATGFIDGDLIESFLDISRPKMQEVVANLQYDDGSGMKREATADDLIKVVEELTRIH
test.summary: IC50 Measurements for Binding to CRBN/DDBI (HTRF)
condition.label: Cy5-labeled Thalidomide probe, one hour incubation
pIC50: −log10 of the molar value.

- molecule: "O=C1CC[C@H](N2Cc3c(ccc4c3OCC43CCN(Cc4cc(-c5ccc(Cl)cc5)ns4)CC3)C2=O)C(=O)N1 [Compound B3]"
  pIC50: "> 7.00"
- molecule: "Cn1cc2cc(CN3CCC4(COc5c4ccc4c5CN([C@H]5CCC(=O)NC5=O)C4=O)C(F)(F)C3)ccc2n1 (some centres unmarked) [Compound B37]"
  pIC50: "> 7.00"
- molecule: "O=C1CC[C@H](N2Cc3c(ccc4c3OCC43CCN(Cc4cccc5[nH]ncc45)CC3(F)F)C2=O)C(=O)N1 (some centres unmarked) [Compound B41]"
  pIC50: "6.30 to 7.00"
- molecule: "Cn1cc(-c2cccc(CN3CC[C@@]4(COc5c4ccc4c5CN([C@H]5CCC(=O)NC5=O)C4=O)C(F)(F)C3)c2)cn1 [Compound B52]"
  pIC50: "6.30 to 7.00"
- molecule: "O=C1CC[C@H](N2Cc3c(ccc4c3OCC43CCN(Cc4cnn(-c5ccc(Cl)cc5)c4C(F)(F)F)CC3)C2=O)C(=O)N1 [Compound B1]"
  pIC50: "6.00 to 6.30"
- molecule: "Cn1ncc2c(CN3CCC4(COc5c4ccc4c5CN([C@H]5CCC(=O)NC5=O)C4=O)C(F)(F)C3)cccc21 (some centres unmarked) [Compound B43]"
  pIC50: "5.30 to 6.00"
- molecule: "Cc1cc2c(c3c1C(=O)N([C@H]1CCC(=O)NC1=O)C3)OCC21CCN(Cc2cccc(-c3cnn(C)c3)c2)CC1 [Compound B20]"
  pIC50: "6.00 to 6.30"
- molecule: "Cn1cc(-c2cccc(CN3CC[C@]4(COc5c4ccc4c5CN([C@H]5CCC(=O)NC5=O)C4=O)C(F)(F)C3)c2)cn1 [Compound B51]"
  pIC50: "> 7.00"
